System: Radical scavenging activity
Method Notes: Antioxidant activity assessed as DPPH radical scavenging activity after 30 mins by spectrophotometric analysis
Format: functional
compounds and their reported EC50

Past entries and their recorded results:
compound="COc1cc([C@H]2OC[C@H]3[C@@H]2CO[C@@H]3c2cc(OC)c(O[C@@H]3O[C@H](CO)[C@@H](O)[C@H](O)[C@H]3O)c(OC)c2)cc(OC)c1O[C@H]1O[C@@H](CO)[C@H](O)[C@@H](O)[C@@H]1O [LIRIODENDRTACHIOSIDE]" value_type=EC50 observed_result="> 100 µM"
compound="C/C=C1/[C@H](O[C@@H]2O[C@H](CO)[C@@H](O)[C@H](O)[C@H]2O)OC=C(C(=O)OC)[C@H]1CC(=O)OCCc1ccc(O)cc1 [LIGSTROSIDE]" value_type=EC50 observed_result="> 100 µM"

Query string: Reported EC50 for COc1cc([C@@H]2OC[C@@](O)(Cc3ccc(O[C@@H]4O[C@H](CO)[C@@H](O)[C@H](O)[C@H]4O)c(OC)c3)[C@H]2CO)ccc1O : what is it?
Result string: > 100 µM

Query string: Requested read-out: EC50. Entry: OC[C@H]1O[C@@H](OCCc2ccc(O)cc2)[C@H](O)[C@@H](O)[C@@H]1O [SALIDROSIDE]
Result string: > 100 µM

Query string: What value of measured EC50 is listed for COc1cc([C@H]2c3cc(O[C@@H]4O[C@H](CO)[C@@H](O)[C@H](O)[C@H]4O)c(OC)cc3C[C@@](O)(CO)[C@@H]2CO)ccc1O ?
Result string: > 100 µM

Query string: If you can, please state the reported EC50 value of C/C=C1/[C@H](O[C@@H]2O[C@H](CO)[C@@H](O)[C@H](O)[C@H]2O)OC=C(C(=O)OC)[C@H]1CC(=O)OCCc1ccc(O)c(O)c1 [OLEUROPEIN] .
Result string: 20.8 µM

Numbers sourced from ChEMBL document CHEMBL1909498.
